Overview of recorded pSTAT3 MFI, CD4 T cells, 0.0001 nM (unstimulated 1887) for various binders
# Measured target: T1, IL10Rα/IL2Rγ receptor (human, UniProt Q13651 22-578; P31785 23-369)
# T1 sequence (looked up) 1: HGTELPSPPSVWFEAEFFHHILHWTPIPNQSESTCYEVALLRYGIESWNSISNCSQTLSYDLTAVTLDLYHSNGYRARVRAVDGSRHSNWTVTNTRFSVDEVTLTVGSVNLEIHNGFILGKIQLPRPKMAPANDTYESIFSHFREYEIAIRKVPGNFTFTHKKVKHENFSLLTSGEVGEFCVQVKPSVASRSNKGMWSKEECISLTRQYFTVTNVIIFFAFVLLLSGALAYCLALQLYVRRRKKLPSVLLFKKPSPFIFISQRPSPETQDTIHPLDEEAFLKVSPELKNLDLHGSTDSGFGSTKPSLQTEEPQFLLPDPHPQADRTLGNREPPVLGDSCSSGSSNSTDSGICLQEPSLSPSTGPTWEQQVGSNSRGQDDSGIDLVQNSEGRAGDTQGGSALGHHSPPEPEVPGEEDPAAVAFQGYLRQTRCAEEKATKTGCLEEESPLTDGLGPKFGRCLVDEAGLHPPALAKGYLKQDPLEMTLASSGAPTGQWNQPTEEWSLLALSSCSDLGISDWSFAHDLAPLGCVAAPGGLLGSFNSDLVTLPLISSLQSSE
# T1 sequence (looked up) 2: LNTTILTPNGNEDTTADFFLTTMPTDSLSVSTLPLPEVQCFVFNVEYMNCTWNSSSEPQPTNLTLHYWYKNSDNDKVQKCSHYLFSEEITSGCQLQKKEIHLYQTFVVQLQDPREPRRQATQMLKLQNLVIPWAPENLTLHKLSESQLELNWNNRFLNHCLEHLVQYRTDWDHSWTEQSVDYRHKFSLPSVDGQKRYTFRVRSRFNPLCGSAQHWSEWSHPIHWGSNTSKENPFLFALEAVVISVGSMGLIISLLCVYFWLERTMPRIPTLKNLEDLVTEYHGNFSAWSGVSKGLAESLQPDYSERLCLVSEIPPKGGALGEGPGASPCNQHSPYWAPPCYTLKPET
# Test summary: cell-based or functional assay
Write down the numeric answer in MFI and omit the unit.

{"columns": ["Binder", "Unit label", "Recorded result"],
 "data": [
  ["DR465(DR240-DR231) (bispecific antibody) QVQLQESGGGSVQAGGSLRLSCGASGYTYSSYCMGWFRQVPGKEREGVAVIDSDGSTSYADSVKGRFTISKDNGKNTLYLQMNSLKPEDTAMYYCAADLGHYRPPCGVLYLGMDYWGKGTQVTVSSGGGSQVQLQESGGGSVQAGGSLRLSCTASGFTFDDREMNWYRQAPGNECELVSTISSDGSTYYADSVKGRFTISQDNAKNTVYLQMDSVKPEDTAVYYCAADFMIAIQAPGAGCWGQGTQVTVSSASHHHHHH", "MFI", 1800],
  ["DR471(DR241-DR231) (bispecific antibody) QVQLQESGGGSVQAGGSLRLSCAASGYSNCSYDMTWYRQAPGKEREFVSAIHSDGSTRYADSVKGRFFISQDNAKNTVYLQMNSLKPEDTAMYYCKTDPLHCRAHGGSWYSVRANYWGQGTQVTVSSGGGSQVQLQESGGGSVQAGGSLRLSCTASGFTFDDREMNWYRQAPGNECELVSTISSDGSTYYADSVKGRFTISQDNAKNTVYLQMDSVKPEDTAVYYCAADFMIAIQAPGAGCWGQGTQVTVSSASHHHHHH", "MFI", 1800],
  ["DR441(DR236-DR231) (bispecific antibody) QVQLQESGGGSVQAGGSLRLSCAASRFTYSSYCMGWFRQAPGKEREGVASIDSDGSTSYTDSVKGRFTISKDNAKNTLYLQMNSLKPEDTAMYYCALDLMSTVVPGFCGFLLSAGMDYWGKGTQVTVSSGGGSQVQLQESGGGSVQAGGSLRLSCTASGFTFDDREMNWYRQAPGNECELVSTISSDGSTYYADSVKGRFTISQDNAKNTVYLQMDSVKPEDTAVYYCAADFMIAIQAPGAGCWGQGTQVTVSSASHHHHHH", "MFI", 1810]
]}

Consider the additional binder presented here.
stdin: Return value of pSTAT3 MFI, CD4 T cells, 0.0001 nM (unstimulated 1887) for input DR395(DR229-DR239) (bispecific antibody) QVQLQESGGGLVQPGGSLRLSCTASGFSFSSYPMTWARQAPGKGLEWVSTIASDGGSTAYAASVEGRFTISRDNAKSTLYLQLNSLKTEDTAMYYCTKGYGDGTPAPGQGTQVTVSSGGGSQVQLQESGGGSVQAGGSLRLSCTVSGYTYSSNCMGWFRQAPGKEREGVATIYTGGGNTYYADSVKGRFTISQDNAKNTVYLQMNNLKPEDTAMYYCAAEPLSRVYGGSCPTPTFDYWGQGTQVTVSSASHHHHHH , no commentary.
stdout: 1800
